- Test system: 743489-274-T-PDC complex spheroid growth
- procedure text: Anticancer human tumor 743489-274-T-PDC patient-derived renal cell carcinoma cell line growth inhibition [AhR]
- condition parameters: second compound 0.1 µM; first compound 0.0316 µM; stronger effect = lower value
observable: viability, T/C (%)
Report as a plain number; the unit % is understood.

// below: answered molecules
[[record]]
molecule = "O=C(C=Cc1cccc(S(=O)(=O)Nc2ccccc2)c1)NO + Cc1cncc(-c2nc(NCCc3c[nH]c4ccccc34)c3ncn(C(C)C)c3n2)c1"
observable = "viability, T/C"
units_of_measure = "%"
value = 88.3

[[record]]
molecule = "CC1COCCN1c1cc(-c2ccnn2C)c2ccnc(-c3ccn[nH]3)c2n1 (configuration not stated) + CC(CO)NC(=O)c1cc(-c2ccc(Cl)cc2)nn(-c2cnn(C)c2)c1=O"
observable = "viability, T/C"
units_of_measure = "%"
value = 99.9


// viability, T/C value for Nc1ncn(C2CC(O)C(CO)O2)c(=O)n1 (configuration not stated) + Cc1cncc(-c2nc(NCCc3c[nH]c4ccccc34)c3ncn(C(C)C)c3n2)c1 : 104

// viability, T/C value for Nc1ccccc1NC(=O)c1ccc(CNC(=O)OCc2cccnc2)cc1 + CC(CO)NC(=O)c1cc(-c2ccc(Cl)cc2)nn(-c2cnn(C)c2)c1=O : 92.7

---

- Test system: 743489-274-T-PDC complex spheroid growth
- procedure text: Anticancer human tumor 743489-274-T-PDC cell line growth inhibition [AhR]
- condition parameters: second compound 0.1 µM; first compound 0.0316 µM; stronger effect = lower value
Below, each entry is listed with its recorded viability, T/C.
Report as a plain number; the unit % is understood.

// below: answered compounds
[[record]]
compound = "NS(=O)(=O)OCC1CC(n2ccc3c(NC4CCc5ccccc54)ncnc32)CC1O (stereo unspecified) + CC(CO)NC(=O)c1cc(-c2ccc(Cl)cc2)nn(-c2cnn(C)c2)c1=O"
value = 89.3

[[record]]
compound = "Nc1ccn(C2OC(CO)C(O)C2(F)F)c(=O)n1 (stereo unspecified) + CC(CO)NC(=O)c1cc(-c2ccc(Cl)cc2)nn(-c2cnn(C)c2)c1=O"
value = 81.9

[[record]]
compound = "O=C(c1cc(Cc2n[nH]c(=O)c3ccccc23)ccc1F)N1CCN(C(=O)C2CC2)CC1 + CC(CO)NC(=O)c1cc(-c2ccc(Cl)cc2)nn(-c2cnn(C)c2)c1=O"
value = 106

[[record]]
compound = "CC1(C)CCC(CN2CCN(c3ccc(C(=O)NS(=O)(=O)c4ccc(NCC5CCOCC5)c([N+](=O)[O-])c4)c(Oc4cnc5[nH]ccc5c4)c3)CC2)=C(c2ccc(Cl)cc2)C1 + CC(CO)NC(=O)c1cc(-c2ccc(Cl)cc2)nn(-c2cnn(C)c2)c1=O"
value = 96.8


// viability, T/C value for CC1COCCN1c1cc(C2(S(C)(=N)=O)CC2)nc(-c2ccnc3[nH]ccc23)n1 (stereo unspecified) + Cc1ccccc1N=Nc1ccc(NC(=O)c2ccnn2C)c(C)c1 : 92.1

// viability, T/C value for COc1cccc2c1C(=O)c1c(O)c3c(c(O)c1C2=O)CC(O)(C(=O)CO)CC3OC1CC(N)C(O)C(C)O1 (stereo unspecified) + CC(CO)NC(=O)c1cc(-c2ccc(Cl)cc2)nn(-c2cnn(C)c2)c1=O : 101

---

- Tested on: 743489-274-T-PDC complex spheroid growth
- procedure text: Anticancer human tumor 743489-274-T-PDC cell line growth inhibition [AhR];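 note: spheroids exposed to agents for 7 days before readout; 100% = DMSO vehicle control wells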
- condition parameters: second compound 0.316 µM; first compound 0.00316 µM; stronger effect = lower value
Below, each entry is listed with its recorded viability, T/C.
Report as a plain number; the unit % is understood.

// below: answered compounds
[[record]]
compound = "Nc1ncn(C2CC(O)C(CO)O2)c(=O)n1 (configuration not stated) + CC(CO)NC(=O)c1cc(-c2ccc(Cl)cc2)nn(-c2cnn(C)c2)c1=O"
target = "743489-274-T-PDC complex spheroid growth"
units_of_measure = "%"
value = 80.4

[[record]]
compound = "Cn1ncnc1C1c2n[nH]c(=O)c3cc(F)cc(c23)NC1c1ccc(F)cc1 (configuration not stated) + Cc1cncc(-c2nc(NCCc3c[nH]c4ccccc34)c3ncn(C(C)C)c3n2)c1"
target = "743489-274-T-PDC complex spheroid growth"
units_of_measure = "%"
value = 96.1

[[record]]
compound = "Cn1ncnc1C1c2n[nH]c(=O)c3cc(F)cc(c23)NC1c1ccc(F)cc1 (configuration not stated) + Cc1ccccc1N=Nc1ccc(NC(=O)c2ccnn2C)c(C)c1"
target = "743489-274-T-PDC complex spheroid growth"
units_of_measure = "%"
value = 89


// viability, T/C value for Nc1ncn(C2CC(O)C(CO)O2)c(=O)n1 (configuration not stated) + Cc1ccccc1N=Nc1ccc(NC(=O)c2ccnn2C)c(C)c1 : 107

// viability, T/C value for Cn1ncnc1C1c2n[nH]c(=O)c3cc(F)cc(c23)NC1c1ccc(F)cc1 (configuration not stated) + CC(CO)NC(=O)c1cc(-c2ccc(Cl)cc2)nn(-c2cnn(C)c2)c1=O : 115

// viability, T/C value for CC[C@@]1(O)C(=O)OCc2c1cc1n(c2=O)Cc2cc3c(CN(C)C)c(O)ccc3nc2-1 + Cc1ccccc1N=Nc1ccc(NC(=O)c2ccnn2C)c(C)c1 : 106

// viability, T/C value for Nc1ncn(C2CC(O)C(CO)O2)c(=O)n1 (configuration not stated) + Cc1cncc(-c2nc(NCCc3c[nH]c4ccccc34)c3ncn(C(C)C)c3n2)c1 : 99.4

---

Below, each entry is listed with its recorded viability, T/C.
- Tested on: 743489-274-T-PDC complex spheroid growth
- procedure text: Anticancer human tumor 743489-274-T-PDC cell line growth inhibition [AhR];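 note: spheroids exposed to agents for 7 days before readout; 100% = DMSO vehicle control wells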
- condition parameters: second compound 10 µM; first compound 0.316 µM; stronger effect = lower value
Report as a plain number; the unit % is understood.

// below: answered molecules
[[record]]
molecule = "CC1COCCN1c1cc(-c2ccnn2C)c2ccnc(-c3ccn[nH]3)c2n1 (stereo not drawn) + CC(CO)NC(=O)c1cc(-c2ccc(Cl)cc2)nn(-c2cnn(C)c2)c1=O"
value = 95.9

[[record]]
molecule = "O=C(c1cc(Cc2n[nH]c(=O)c3ccccc23)ccc1F)N1CCN(C(=O)C2CC2)CC1 + Cc1ccccc1N=Nc1ccc(NC(=O)c2ccnn2C)c(C)c1"
value = 106


// viability, T/C value for O=C(C=Cc1cccc(S(=O)(=O)Nc2ccccc2)c1)NO + CC(CO)NC(=O)c1cc(-c2ccc(Cl)cc2)nn(-c2cnn(C)c2)c1=O : 83.2

---

- Test system: 743489-274-T-PDC complex spheroid growth
- procedure text: Anticancer human tumor 743489-274-T-PDC cell line growth inhibition [AhR];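 note: spheroids exposed to agents for 7 days before readout; 100% = DMSO vehicle control wells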
- condition parameters: second compound 0.1 µM; first compound 0.000316 µM; stronger effect = lower value
observable: viability, T/C (%)
Report as a plain number; the unit % is understood.

[[record]]
molecule = "CC[C@@]1(O)C(=O)OCc2c1cc1n(c2=O)Cc2cc3c(CN(C)C)c(O)ccc3nc2-1 + Cc1cncc(-c2nc(NCCc3c[nH]c4ccccc34)c3ncn(C(C)C)c3n2)c1"
units_of_measure = "%"
value = 100

[[record]]
molecule = "CC[C@@]1(O)C(=O)OCc2c1cc1n(c2=O)Cc2cc3c(CN(C)C)c(O)ccc3nc2-1 + Cc1ccccc1N=Nc1ccc(NC(=O)c2ccnn2C)c(C)c1"
units_of_measure = "%"
value = 98.8

[[record]]
molecule = "Cn1ncnc1C1c2n[nH]c(=O)c3cc(F)cc(c23)NC1c1ccc(F)cc1 (stereo unspecified) + CC(CO)NC(=O)c1cc(-c2ccc(Cl)cc2)nn(-c2cnn(C)c2)c1=O"
units_of_measure = "%"
value = 90.7


// viability, T/C value for CC[C@@]1(O)C(=O)OCc2c1cc1n(c2=O)Cc2cc3c(CN(C)C)c(O)ccc3nc2-1 + CC(CO)NC(=O)c1cc(-c2ccc(Cl)cc2)nn(-c2cnn(C)c2)c1=O : 99.8

// viability, T/C value for Cn1ncnc1C1c2n[nH]c(=O)c3cc(F)cc(c23)NC1c1ccc(F)cc1 (stereo unspecified) + Cc1ccccc1N=Nc1ccc(NC(=O)c2ccnn2C)c(C)c1 : 97.3

// viability, T/C value for Cn1ncnc1C1c2n[nH]c(=O)c3cc(F)cc(c23)NC1c1ccc(F)cc1 (stereo unspecified) + Cc1cncc(-c2nc(NCCc3c[nH]c4ccccc34)c3ncn(C(C)C)c3n2)c1 : 95.5

---

- System: 743489-274-T-PDC complex spheroid growth
- procedure text: Anticancer human tumor 743489-274-T-PDC cell line growth inhibition [AhR]; active = viability on the fitted dose curve at most 10% of control; inactive = the rest;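 note: spheroids exposed to agents for 7 days before readout; 100% = DMSO vehicle control wells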
- condition parameters: second compound 0.316 µM; first compound 0.3 µM
Give your call using only these classes: 1 (yes) = active, 0 (no) = inactive

Below are worked cases with known answers.
[[record]]
compound = "CCc1c2c(nc3ccc(O)cc13)-c1cc3c(c(=O)n1C2)COC(=O)[C@]3(O)CC + Cc1ccccc1N=Nc1ccc(NC(=O)c2ccnn2C)c(C)c1"
assigned_class = "0 (no)"

[[record]]
compound = "Nc1ncn(C2CC(O)C(CO)S2)c(=O)n1 (stereo not drawn) + Cc1ccccc1N=Nc1ccc(NC(=O)c2ccnn2C)c(C)c1"
assigned_class = "0 (no)"


Turning now to a further record.
Hi team, can someone confirm the assay call for CC(C)CC(NC(=O)C(Cc1ccccc1)NC(=O)c1cnccn1)B(O)O (stereo not drawn) + Cc1ccccc1N=Nc1ccc(NC(=O)c2ccnn2C)c(C)c1 ?
1 (yes)
